system.under.test: Glucagon-like peptide 2 receptor (Homo sapiens)
test.details: Positive ago-allosteric modulation of GLP2R overexpressed in human SE302 cells assessed as placental alkaline phosphatase activation at 50 uM measured on day 3 by Alamar Blue assay relative to 100 pM GLP2
Format: cell-based
The following compounds are listed with their measured %max values.
Quick note: give the figure in %, leave out the unit.

O/N=C(\CSc1ccncc1)c1cc(Cl)sc1Cl | 55
Cc1cnccc1SC/C(=N\O)c1cc(Cl)sc1Cl | 44
Cc1ccc(SC/C(=N\O)c2cc(Cl)sc2Cl)cc1 | 3

Challenge: Output measured %max for this item: "O/N=C(\CSc1cccnc1)c1cc(Cl)sc1Cl"
Response given: 27
